# measurement-notes: Cell viability of B16 melanoma 4A5 cells
# Assay type: cell-based, murine
# setup-conditions: mouse, 1000 µM, B16 4A5 cells
observable: viability at 72 h, 1000 µM (%)
Report the value in % with no unit label.

Some solved entries appear below for comparison.
compound: CCCOC1=C(OCC(O)CO)C(=O)O[C@@H]1[C@@H](O)CO (stereo partly drawn) [compound 17, 2-O-(2,3-dihydroxypropyl)-3-O-propyl-AsA]
unit-symbol: %
viability at 72 h, 1000 µM: 92
//
compound: OC[C@H]1O[C@@H](Oc2ccc(O)cc2)[C@H](O)[C@@H](O)[C@@H]1O [Arbutin, reference compound]
unit-symbol: %
viability at 72 h, 1000 µM: 96.2
//
compound: CCCCCCOC1=C(OCC(O)CO)C(=O)O[C@@H]1[C@@H](O)CO (stereo partly drawn) [compound 20, 2-O-(2,3-dihydroxypropyl)-3-O-hexyl-AsA]
unit-symbol: %
viability at 72 h, 1000 µM: 60.8
//
compound: CCCCCOC1=C(OCC(O)CO)[C@@H]([C@@H](O)CO)OC1=O (stereo partly drawn) [compound 5, 3-O-(2,3-dihydroxypropyl)-2-O-pentyl-AsA]
unit-symbol: %
viability at 72 h, 1000 µM: 105
//
compound: CCOC1=C(OCC(O)CO)[C@@H]([C@@H](O)CO)OC1=O (stereo partly drawn) [compound 2, 3-O-(2,3-dihydroxypropyl)-2-O-ethyl-AsA]
unit-symbol: %
viability at 72 h, 1000 µM: 101

Proceeding to the next compound to report its viability at 72 h, 1000 µM.
Exercise: Which viability at 72 h, 1000 µM is reported for this compound? O=C1O[C@H]([C@@H](O)CO)C(O)=C1O[C@H]1O[C@H](CO)[C@@H](O)[C@H](O)[C@H]1O [2-O-α-D-Glucopyranosyl-AsA, reference compound]
Key: 107
